# targetDesc: LKB1 (Homo sapiens, UniProt Q15831+Q7RTN6)
# Sequence (Q15831 whole entry): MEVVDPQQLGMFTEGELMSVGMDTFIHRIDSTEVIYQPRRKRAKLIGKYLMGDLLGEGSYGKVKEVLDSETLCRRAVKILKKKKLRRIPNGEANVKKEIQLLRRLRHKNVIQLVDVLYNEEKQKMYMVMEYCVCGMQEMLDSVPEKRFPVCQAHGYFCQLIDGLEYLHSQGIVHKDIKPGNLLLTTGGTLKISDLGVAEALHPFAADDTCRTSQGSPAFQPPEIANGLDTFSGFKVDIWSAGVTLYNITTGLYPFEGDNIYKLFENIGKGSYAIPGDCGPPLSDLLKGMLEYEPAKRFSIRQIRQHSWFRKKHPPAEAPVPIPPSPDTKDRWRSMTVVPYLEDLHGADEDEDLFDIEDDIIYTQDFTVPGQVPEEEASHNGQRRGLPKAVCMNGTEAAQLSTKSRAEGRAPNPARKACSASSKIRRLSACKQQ
# Sequence (Q7RTN6 whole entry): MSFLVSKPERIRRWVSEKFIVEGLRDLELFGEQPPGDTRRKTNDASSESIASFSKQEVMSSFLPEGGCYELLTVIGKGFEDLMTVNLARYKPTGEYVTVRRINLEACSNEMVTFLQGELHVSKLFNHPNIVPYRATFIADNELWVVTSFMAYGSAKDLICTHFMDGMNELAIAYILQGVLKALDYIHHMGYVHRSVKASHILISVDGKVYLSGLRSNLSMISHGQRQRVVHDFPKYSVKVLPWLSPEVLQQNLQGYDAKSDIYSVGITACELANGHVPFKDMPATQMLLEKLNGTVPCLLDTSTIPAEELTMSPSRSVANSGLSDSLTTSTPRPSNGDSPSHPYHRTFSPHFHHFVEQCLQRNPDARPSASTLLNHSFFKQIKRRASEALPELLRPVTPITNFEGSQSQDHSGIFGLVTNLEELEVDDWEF
# Sequence (Q9Y376 whole entry partner): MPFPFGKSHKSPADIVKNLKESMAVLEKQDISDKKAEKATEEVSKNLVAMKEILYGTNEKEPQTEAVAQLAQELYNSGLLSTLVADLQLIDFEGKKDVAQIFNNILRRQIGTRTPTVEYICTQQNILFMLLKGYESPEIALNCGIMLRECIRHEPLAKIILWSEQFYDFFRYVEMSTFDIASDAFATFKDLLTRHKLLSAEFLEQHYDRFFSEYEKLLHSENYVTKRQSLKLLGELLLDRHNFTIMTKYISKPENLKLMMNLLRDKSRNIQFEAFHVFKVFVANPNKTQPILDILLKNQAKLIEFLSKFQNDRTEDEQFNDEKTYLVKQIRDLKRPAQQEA
# method: in vitro LKB1 functional activity
# Type: biochemical
# experimentalSetup: APA analogs
parameterMeasured: LKB1 % Act. Increase

>>> observedmeasurement("CC(=O)N[S@SP3](=O)(=O)c1ccc(NC(=O)c2nc(-c3ccc(C)cc3)cnc2N)cc1")
"C (C=199-1000%)"
>>> observedmeasurement("CO[P@](C)(=O)CS(=O)(=O)c1ccc(NC(=O)c2nc(-c3ccc(C)cc3)cnc2N)cc1")
"A (A=>4000%)"
>>> observedmeasurement("Cc1ccc(-c2cnc(N)c(C(=O)Nc3ccc4c(c3)CNS4(=O)=O)n2)cc1")
"D (D=<1000%)"
>>> observedmeasurement("CC(=O)NS(=O)(=O)c1ccc(NC(=O)c2nc(-c3ccc(N)cc3)cnc2N)cc1")
"C (C=199-1000%)"
>>> observedmeasurement("CC(=O)NS(=O)(=O)c1ccc(NC(=O)c2nc(-c3cnc(C)nc3)cnc2N)cc1")
"C (C=199-1000%)"

**Q:** Reported LKB1 % Act. Increase, compound COc1cc(F)c(-c2cnc(N)c(C(=O)Nc3ccc(S(=O)(=O)NC(C)=O)cc3)n2)c(F)c1 : ____
**A:** D (D=<1000%)

**Q:** Tell me the measured LKB1 % Act. Increase of CC(=O)NS(=O)(=O)c1ccc(NC(=O)c2nc(-c3ccc4cc[nH]c4c3)cnc2N)cc1 , please.
**A:** C (C=199-1000%)

**Q:** Quick one: LKB1 % Act. Increase for CC(=O)NS(=O)(=O)c1ccc(NC(=O)c2nc(-c3cc(F)ccc3C#N)cnc2N)cc1 ?
**A:** A (A=>4000%)

**Q:** What measured LKB1 % Act. Increase goes with CCOP(=O)(CC)CS(=O)(=O)c1ccc(NC(=O)c2nc(-c3ccc(C)cc3)cnc2N)cc1 (stereo not shown) ?
**A:** B (B=399-2000%)

**Q:** What does the record list as LKB1 % Act. Increase for CCP(=O)(CC)CS(=O)(=O)c1ccc(NC(=O)c2nc(-c3ccc(C)cc3)cnc2N)cc1 ?
**A:** B (B=399-2000%)
